# TESTED TARGET: TAK1/TAB1 (Homo sapiens)
# ASSAY PROTOCOL: Inhibition of recombinant human full-length His-tagged TAK1-TAB1 fusion protein (437 to 504 residues) expressed in baculovirus expression system using fluorescein-MAP2K1 as substrate preincubated for 30 mins followed by substrate addition and measured after 60 mins in presence of ATP by lanthascreen TR-FRET assay
pIC50: −log10 of the molar value.
QUANTITY: pIC50

O=C(c1c[nH]c(C(=O)N2CCCC2)c1)N(Cc1ncco1)Cc1ccccc1OC(F)F : 5.49

I. Nc1ncc(-c2cnn([C@H]3CC[C@H](O)CC3)c2)c2c(Cl)c(-c3cccc4nnsc34)oc12
II. CNC(=O)CN(Cc1ccccc1OC)C(=O)c1c[nH]c(C(=O)N2CCCC2)c1
III. CNC(=O)[C@H](C)N(Cc1ccccc1OC(F)F)C(=O)c1c[nH]c(C(=O)N2CCCC2)n1
Order each entry by recorded pIC50, climbing from the minimum. Answer by listing the labels in the order asked for. III, II, I
(III: 5.35, II: 5.55, I: 8.00)

* * *

# TESTED TARGET: TAK1/TAB1 (Homo sapiens)
# ASSAY PROTOCOL: Inhibition of recombinant human full-length His-tagged TAK1-TAB1 fusion protein (437 to 504 residues) expressed in baculovirus expression system using fluorescein-MAP2K1 as substrate preincubated for 30 mins followed by substrate addition and measured after 60 mins in presence of ATP by lanthascreen TR-FRET assay
pIC50: −log10 of the molar value.
Measured pIC50, listed per entry for reference.

CNC(=O)CN(Cc1ccccc1)C(=O)c1c[nH]c(C(=O)N2CCCC2)n1 : < 5.00
CCNC(=O)c1cc(C(=O)N(CC(=O)NC)Cc2ccccc2OC(F)F)c[nH]1 : < 4.00
CNC(=O)CN(Cc1c(Cl)cccc1OC(F)F)C(=O)c1c[nH]c(C(=O)N2CCCC2)n1 : < 5.00

Let's switch to this compound now.
For reference, reported pIC50 for "CNC(=O)CN(Cc1c(F)cccc1OC(F)F)C(=O)c1c[nH]c(C(=O)N2CCCC2)n1" stands at < 5.00

* * *

# TESTED TARGET: TAK1/TAB1 (Homo sapiens)
# ASSAY PROTOCOL: Inhibition of recombinant human full-length His-tagged TAK1-TAB1 fusion protein (437 to 504 residues) expressed in baculovirus expression system using fluorescein-MAP2K1 as substrate preincubated for 30 mins followed by substrate addition and measured after 60 mins in presence of ATP by lanthascreen TR-FRET assay
QUANTITY: IC50 (nM)

CNC(=O)CN(Cc1cccc2[nH]ccc12)C(=O)c1c[nH]c(C(=O)N2CCCC2)c1 : 1800

a. CCC(C(=O)NC)N(Cc1ccccc1OC(F)F)C(=O)c1c[nH]c(C(=O)N2CCCC2)n1 (stereo not given)
b. CNC(=O)CN(Cc1ccccc1OC(F)F)C(=O)c1c[nH]c(C(=O)N2CC3CCCCC3C2)n1 (stereo not given)
Between a and b , which one shows the larger IC50 value? Write down the label attached to your selection. b
(b: 3400 nM, a: 1000 nM)

* * *

# TESTED TARGET: TAK1/TAB1 (Homo sapiens, UniProt O43318)
# Sequence (Q15750 whole entry, the tested form may be a part): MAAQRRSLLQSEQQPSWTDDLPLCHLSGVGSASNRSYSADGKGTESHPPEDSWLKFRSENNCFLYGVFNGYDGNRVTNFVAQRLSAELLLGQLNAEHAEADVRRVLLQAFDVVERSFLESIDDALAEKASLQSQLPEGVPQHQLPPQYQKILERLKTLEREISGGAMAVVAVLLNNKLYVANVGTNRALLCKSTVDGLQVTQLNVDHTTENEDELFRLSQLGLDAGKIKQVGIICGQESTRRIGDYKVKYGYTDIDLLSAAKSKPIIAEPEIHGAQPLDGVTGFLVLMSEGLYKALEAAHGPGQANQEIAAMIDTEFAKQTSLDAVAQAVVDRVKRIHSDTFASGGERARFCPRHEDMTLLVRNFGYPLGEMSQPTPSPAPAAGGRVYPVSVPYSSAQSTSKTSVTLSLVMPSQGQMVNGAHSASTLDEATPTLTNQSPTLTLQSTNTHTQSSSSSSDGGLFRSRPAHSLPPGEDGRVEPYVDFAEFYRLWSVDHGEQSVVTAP
# Sequence (O43318 whole entry, the tested form may be a part): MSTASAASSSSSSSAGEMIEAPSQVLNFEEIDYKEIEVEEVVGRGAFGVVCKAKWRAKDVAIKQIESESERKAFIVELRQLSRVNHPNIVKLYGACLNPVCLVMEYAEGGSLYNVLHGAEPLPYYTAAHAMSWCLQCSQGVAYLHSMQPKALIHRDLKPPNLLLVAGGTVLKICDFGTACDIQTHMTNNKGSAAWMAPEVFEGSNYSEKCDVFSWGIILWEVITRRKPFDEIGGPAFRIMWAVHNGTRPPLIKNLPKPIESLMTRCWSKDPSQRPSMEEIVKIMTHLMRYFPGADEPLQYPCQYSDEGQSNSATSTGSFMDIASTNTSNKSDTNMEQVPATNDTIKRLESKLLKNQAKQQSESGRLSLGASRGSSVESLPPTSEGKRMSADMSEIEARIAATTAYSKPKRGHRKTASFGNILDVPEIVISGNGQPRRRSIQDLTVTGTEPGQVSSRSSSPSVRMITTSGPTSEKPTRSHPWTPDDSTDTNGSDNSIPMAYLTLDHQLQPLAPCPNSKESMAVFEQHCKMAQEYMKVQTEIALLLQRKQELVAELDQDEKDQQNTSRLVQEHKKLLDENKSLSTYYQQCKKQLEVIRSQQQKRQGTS
# ASSAY PROTOCOL: Inhibition of recombinant human full-length His-tagged TAK1-TAB1 fusion protein (437 to 504 residues) expressed in baculovirus expression system using fluorescein-MAP2K1 as substrate preincubated for 30 mins followed by substrate addition and measured after 60 mins in presence of ATP by lanthascreen TR-FRET assay
QUANTITY: IC50

Example results:
CNC(=O)CN(Cc1ccc(OC)cc1OC(F)F)C(=O)c1c[nH]c(C(=O)N2CCCC2)n1 : > 10 µM
CNC(=O)CN(Cc1cccc(OC)c1OC(F)F)C(=O)c1c[nH]c(C(=O)N2CCCC2)n1 : > 10 µM

Let's switch to this compound now.
For reference, reported IC50 for CNC(=O)C(C(C)C)N(Cc1ccccc1OC(F)F)C(=O)c1c[nH]c(C(=O)N2CCCC2)n1 (stereo not drawn) stands at > 10 µM
